Measurement record for HDAC4 (Homo sapiens, UniProt P56524); quantity recorded: pIC50.
Lab note — pIC50 values are minus log10 of concentrations in M.

Example entries and their recorded answers appear below.
Cc1ccc(-n2c(SCc3ccc(C(=O)NO)cc3)nc3cc(Cl)ccc3c2=O)cc1 : 4.72
O=C(NO)c1ccc(CSc2nc3ccccc3c(=O)n2-c2ccccc2)cc1 : 5.64
Cc1cccc2nc(SCc3ccc(C(=O)NO)cc3)n(-c3ccccc3)c(=O)c12 : 6.40

stdin: Hi! What's the reported pIC50 for O=C(NO)c1ccc(CSc2nc3ccccc3c(=O)n2-c2ccc(Br)cc2)cc1 on HDAC4 (Homo sapiens, UniProt P56524)?
stdout: 5.96

stdin: Give pIC50 (HDAC4 (Homo sapiens, UniProt P56524)) of the following compound: O=C(NO)c1ccc(CSc2nc3cc(Cl)ccc3c(=O)n2-c2ccccc2)cc1
stdout: 5.37

stdin: Which measured pIC50 belongs to Cc1ccc(-n2c(SCc3ccc(C(=O)NO)cc3)nc3cc(Cl)ccc3c2=O)cc1C , tested on HDAC4 (Homo sapiens, UniProt P56524)?
stdout: 5.15

stdin: GET /values?readout=pIC50&system=HDAC4 (Homo sapiens, UniProt P56524)&item= CCc1ccc(-n2c(SCc3ccc(C(=O)NO)cc3)nc3ccccc3c2=O)cc1
stdout: 6.19
